meta.source: patent US20120077731A1

Biological target: T1, Human soluble IL-6R (human, UniProt P08887 20-358)
T1 construct: Soluble recombinant form; biotinylated in some assays; also called hIL-6R; human IL-6R
T1 sequence (looked up): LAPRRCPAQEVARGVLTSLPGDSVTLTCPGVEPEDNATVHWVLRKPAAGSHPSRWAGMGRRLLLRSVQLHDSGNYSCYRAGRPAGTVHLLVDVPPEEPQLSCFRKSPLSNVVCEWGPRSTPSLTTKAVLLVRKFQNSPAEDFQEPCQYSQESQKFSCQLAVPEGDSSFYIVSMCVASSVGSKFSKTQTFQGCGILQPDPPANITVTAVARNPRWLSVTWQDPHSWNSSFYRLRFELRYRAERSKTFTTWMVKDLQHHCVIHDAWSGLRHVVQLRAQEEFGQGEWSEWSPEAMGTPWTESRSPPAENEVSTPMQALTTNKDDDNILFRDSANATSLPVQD
Experiment: SPR (Biacore), binding curves at several concentrations of purified Nanobody on IL-6R
ENDPOINT NAME: Kd (nM)
Numbers only, in nM.

{"BINDER": "IL6R65 (VHH, also called ILR65; parent Nanobody) VHH: EVQLVESGGGLVQPGGSLRLSCAASGSIFKVNAMGWYRQAPGKGRELVAGIISGGSTNYADSVKGRFTISRDNAKNTLYLQMNSLRPEDTAVYYCAFVTTNSDYDLGRDYWGQGTLVTVSS", "ENDPOINT NAME": "Kd", "RESULT VALUE": 4.3}

Give measured Kd for every item shown.
1. PMP7F4 (VHH) VHH: EVQLVESGGGLVQPGGSLRLSCAASGTTFKVNVMAWYRQAPGKGRELVAGIINGGSTTYADSVKGRFTISRDNAKNTLYLQMNSLRPEDTAVYYCAFVTTNSDYDLGRDYWGQGTLVTVSS
2. PMP7C4 (VHH, not shown: c-myc and (His)6 tags) VHH: EVQLVESGGGLVQPGGSLRLSCAASGTTFRINVMAWYRQAPGKGRELVAGIITNGSTSYADSVKGRFTISRDNAKNTLYLQMNSLRPEDTAVYYCAFVTTNSDYDLGRDYWGQGTLVTVSS
3. PMP7G8 (VHH, expressed with c-myc and (His)6 tags) VHH: EVQLVESGGGLVQPGGSLRLSCAASGSTFRINVMAWYRQAPGKGRELVAGVINDGSTTYADSVKGRFTISRDNAKNTLYLQMNSLRPEDTAVYYCAFVTTNSDYDLGRDYWGQGTLVTVSS
4. PMP7D6 (VHH, not shown: c-myc and (His)6 tags) VHH: EVQLVESGGGLVQPGGSLRLSCAASGSIFRVNVMAWYRQAPGKGRELVAAVINGGTTTYADSVKGRFTISRDNAKNTLYLQMNSLRPEDTAVYYCAFVTTNSDYDLGRDYWGQGTLVTVSS
5. PMP7G7 (VHH, expressed with c-myc and (His)6 tags) VHH: EVQLVESGGGLVQPGGSLRLSCAASGTTFKINIMAWYRQAPGKGRELVAGVITGGNTTYADSVKGRFTISRDNAKNTLYLQMNSLRPEDTAVYYCAFVTTNSDYDLGRDYWGQGTLVTVSS

[0.48, 0.34, 0.95, 0.42, 0.56]
